B1: CDC25A (parent)
chain: TVAGKHQDLKYISPEIMASVLNGK

Variants of: B1
assay_remarks: protein stability index of a GFP-peptide fusion (GPS, HEK-293T) (PSI 1-6); higher = more stable;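 also: lentivirally expressed fusions sorted by FACS into six bins by GFP to DsRed ratio, PSI derived from sequencing read proportions per bin multiplied by bin number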
applied_conditions: c terminus: a fixed tail appended
protein stability index vs 3: at or above is true, below is false.

variant_description | discrete_label
I16S | true
M17W | false
I16M | true
V20E | true
H6W | false
N22R | false
A18R | false
A3R | false
G4D | true
A18Q | true
S13T | true
K24E | true
G4I | false
A3Y | false
S19E | true
K5T | true
K5V | true
A3K | true
Y11E | true
A3M | false
